TEST TARGET: Glutamate receptor ionotropic, NMDA 1 (Rattus norvegicus)
METHOD DESCRIPTION: Displacement of [3H]glycine from glycine site on the NMDA receptor.
ASSAY ENDPOINT: Ki (µM)

LINE NOTATION | Ki [µM]
CCCc1nnc2c(O)nc3cc(Cl)c(Cl)cc3n12 | 3.92

I: Oc1nc2cc(Cl)c(Cl)cc2n2cnnc12
II: O=[N+]([O-])c1ccc2c(c1)nc(O)c1nncn12
Which value of Ki is greater, the one for I or the one for II ? Mark your answer with the label of the selected entry.
II

###

TEST TARGET: Glutamate receptor ionotropic, AMPA (Rattus norvegicus, UniProt P19490+P19491+P19492+P19493)
METHOD DESCRIPTION: Displacement of [3H]AMPA from Ionotropic glutamate receptor AMPA.
Assay type: protein-complex assay
ASSAY ENDPOINT: Ki

LINE NOTATION | EXPERIMENTAL VALUE
Oc1nc2cc(Cl)c(Cl)cc2n2ccnc12 | 7.38 µM
O=[N+]([O-])c1ccc2c(c1)nc(O)c1nnnn12 | > 10 µM

We now examine a further compound.
State the recorded Ki for this entry: Oc1nc2cc(Cl)c(Cl)cc2n2c(-c3ccccc3)nnc12
> 10 µM
